Biological target: T1, His-tagged human B7-H3 (human, UniProt Q5ZPR3-2 29-245, limits assumed)
T1 construct: Bought His-tagged protein coated on the ELISA plate; also called hu B7-H3; CD276
T1 sequence (looked up): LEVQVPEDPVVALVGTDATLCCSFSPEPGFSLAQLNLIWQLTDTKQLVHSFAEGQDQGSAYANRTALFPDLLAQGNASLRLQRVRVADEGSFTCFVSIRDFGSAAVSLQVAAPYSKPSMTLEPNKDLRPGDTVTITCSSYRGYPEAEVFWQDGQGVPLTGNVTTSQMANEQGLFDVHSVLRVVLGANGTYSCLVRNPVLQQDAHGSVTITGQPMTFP
Experiment: ELISA OD450 on hu B7-H3 over OD450 on mu B7-H3
Experimental endpoint: hu:mu ratio

stdin: Using the record for 40633p1.2.A8 (scFv, V domains shown, Tested as scFv-Fc (Expi293 supernatant)) VH: EVQLLESGGGLLQPGGSLRLSCAASGFSFSSYGMHWVRQAPGKGLEWVAAINSDGSRIYYADSVKGRFTISRDNSKNTLYLQMNSLRAEDTAVYYCTKYYYHYAMDVWGQGTTVTVSS VL: QSVLTQPPSASGTPGQRVTISCSGSRSDIGATTVNWYQQLPGTAPKLLIYQSHLRPSGVPDRFSGSKSGTSASLAISGLQSEDEADYYCASWDASLNTWVFGGGTKLTVL , state its measured hu:mu ratio.
stdout: 1.11

stdin: Kindly indicate its recorded hu:mu ratio. Item: 40633p1.1.G10 (scFv, V domains shown, Tested as scFv-Fc (Expi293 supernatant)) VH: EVQLLESGGGLVEPGGSLRLSCAASGFSFSSYGMHWVRQAPGKGLDWVAVINGEGSGTYYADSVKGRFTISRDNSKSTLYLQMNSLRAEDTAVYYCTKYYYNYAMDVWGQGTTVTVSS VL: QSVLTQPPSASGTPGQRVTISCSGSRTDIGTTSVNWYQQLPGTAPKLLIYQSHQRPSGVPDRFSGSKSGTSASLAISGLQSEDEADYYCASWDASQNTWVFGGGTKLTVL
stdout: 1.32

Attribution: patent US20260008852A1
